Recorded human B cell proliferation, with protein G crosslinking, EC50 values for a group of binders are listed next.
# TESTED_ON: human CD40 on cells (human, UniProt P25942 21-277)
# Sequence (P25942 21-277 limits assumed): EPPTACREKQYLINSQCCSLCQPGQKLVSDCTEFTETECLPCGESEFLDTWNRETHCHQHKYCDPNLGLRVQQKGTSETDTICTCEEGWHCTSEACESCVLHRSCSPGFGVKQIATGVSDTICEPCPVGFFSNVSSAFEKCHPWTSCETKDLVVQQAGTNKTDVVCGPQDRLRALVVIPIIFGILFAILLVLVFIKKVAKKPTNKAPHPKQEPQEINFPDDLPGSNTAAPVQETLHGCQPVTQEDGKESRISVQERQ
# TEST_DESCRIPTION: cell-based or functional assay
Remember to put the unit after the number in your answer.

[ask] State the recorded human B cell proliferation, with protein G crosslinking, EC50 for this entry: 29H10 (antibody, V domains shown, also called 4877-1) VH: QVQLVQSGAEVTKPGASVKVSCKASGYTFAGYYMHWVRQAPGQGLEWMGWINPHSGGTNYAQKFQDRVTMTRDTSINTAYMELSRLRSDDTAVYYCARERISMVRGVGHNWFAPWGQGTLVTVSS VL: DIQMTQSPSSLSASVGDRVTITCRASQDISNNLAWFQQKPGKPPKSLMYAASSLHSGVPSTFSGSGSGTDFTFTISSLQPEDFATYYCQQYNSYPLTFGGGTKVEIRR
[reply] 0.37 nM

[ask] State the recorded human B cell proliferation, with protein G crosslinking, EC50 for this entry: 33H6 (antibody, IgG4, V domains shown, also called 4883-1) VH: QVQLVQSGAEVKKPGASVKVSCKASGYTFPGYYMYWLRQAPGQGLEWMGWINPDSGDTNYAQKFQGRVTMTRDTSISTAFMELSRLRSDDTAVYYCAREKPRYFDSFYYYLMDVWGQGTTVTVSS VL: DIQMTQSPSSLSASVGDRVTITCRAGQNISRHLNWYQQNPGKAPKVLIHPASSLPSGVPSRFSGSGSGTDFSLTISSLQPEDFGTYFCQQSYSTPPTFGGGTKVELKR
[reply] 0.26 nM

[ask] State the recorded human B cell proliferation, with protein G crosslinking, EC50 for this entry: 30A12 (antibody, IgG4, V domains shown, also called 4878-1) VH: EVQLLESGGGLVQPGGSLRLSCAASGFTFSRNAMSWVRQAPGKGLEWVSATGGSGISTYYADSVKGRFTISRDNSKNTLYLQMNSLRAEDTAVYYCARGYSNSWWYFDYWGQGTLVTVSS VL: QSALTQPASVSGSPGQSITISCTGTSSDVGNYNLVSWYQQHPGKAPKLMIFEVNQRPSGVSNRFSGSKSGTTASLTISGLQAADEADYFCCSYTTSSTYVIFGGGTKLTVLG
[reply] 0.4 nM

[ask] State the recorded human B cell proliferation, with protein G crosslinking, EC50 for this entry: 33H9 (antibody, IgG4, V domains shown, also called 4897-1) VH: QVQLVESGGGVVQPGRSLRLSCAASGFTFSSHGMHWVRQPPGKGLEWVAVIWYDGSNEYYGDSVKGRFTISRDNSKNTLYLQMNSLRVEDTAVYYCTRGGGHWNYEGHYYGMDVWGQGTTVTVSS VL: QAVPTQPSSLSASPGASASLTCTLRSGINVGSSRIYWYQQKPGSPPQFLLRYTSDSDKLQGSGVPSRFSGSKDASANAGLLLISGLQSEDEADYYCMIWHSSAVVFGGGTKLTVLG
[reply] 0.19 nM

[ask] State the recorded human B cell proliferation, with protein G crosslinking, EC50 for this entry: 39C2 (antibody, IgG4, V domains shown, also called 4887-1) VH: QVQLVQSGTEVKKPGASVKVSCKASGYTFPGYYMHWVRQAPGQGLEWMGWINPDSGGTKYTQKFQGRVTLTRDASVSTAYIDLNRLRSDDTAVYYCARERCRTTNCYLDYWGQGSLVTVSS VL: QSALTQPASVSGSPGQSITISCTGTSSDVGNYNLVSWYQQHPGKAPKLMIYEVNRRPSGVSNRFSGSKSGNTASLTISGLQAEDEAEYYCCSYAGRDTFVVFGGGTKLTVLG
[reply] 0.21 nM

[ask] State the recorded human B cell proliferation, with protein G crosslinking, EC50 for this entry: 37A6 (antibody, IgG4, V domains shown, also called 4865-1) VH: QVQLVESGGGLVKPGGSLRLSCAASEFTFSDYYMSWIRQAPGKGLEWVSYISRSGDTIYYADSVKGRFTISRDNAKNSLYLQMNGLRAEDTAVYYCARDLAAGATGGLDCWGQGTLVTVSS VL: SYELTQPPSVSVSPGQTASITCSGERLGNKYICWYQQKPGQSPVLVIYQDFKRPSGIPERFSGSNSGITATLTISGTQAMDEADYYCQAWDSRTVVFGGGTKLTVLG
[reply] 0.3 nM

[ask] State the recorded human B cell proliferation, with protein G crosslinking, EC50 for this entry: 4G7 (antibody, IgG4, V domains shown, also called 4869-1) VH: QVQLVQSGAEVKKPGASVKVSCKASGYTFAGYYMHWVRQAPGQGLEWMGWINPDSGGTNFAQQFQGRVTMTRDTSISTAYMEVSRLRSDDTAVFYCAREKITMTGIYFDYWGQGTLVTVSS VL: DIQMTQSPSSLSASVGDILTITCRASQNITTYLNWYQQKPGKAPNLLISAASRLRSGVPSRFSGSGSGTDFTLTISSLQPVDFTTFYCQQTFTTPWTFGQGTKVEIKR
[reply] 0.5 nM

[ask] State the recorded human B cell proliferation, with protein G crosslinking, EC50 for this entry: 35F11 (antibody, IgG4, V domains shown, also called 4868-1) VH: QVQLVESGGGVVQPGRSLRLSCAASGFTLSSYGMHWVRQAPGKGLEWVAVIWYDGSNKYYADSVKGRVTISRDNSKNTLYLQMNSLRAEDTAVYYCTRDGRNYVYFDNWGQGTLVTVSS VL: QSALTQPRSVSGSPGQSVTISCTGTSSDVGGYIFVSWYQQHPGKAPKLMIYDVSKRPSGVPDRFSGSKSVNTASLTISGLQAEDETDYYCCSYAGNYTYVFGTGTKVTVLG
[reply] 0.3 nM

[ask] State the recorded human B cell proliferation, with protein G crosslinking, EC50 for this entry: 36F3 (antibody, IgG4, V domains shown, also called 4891-1) VH: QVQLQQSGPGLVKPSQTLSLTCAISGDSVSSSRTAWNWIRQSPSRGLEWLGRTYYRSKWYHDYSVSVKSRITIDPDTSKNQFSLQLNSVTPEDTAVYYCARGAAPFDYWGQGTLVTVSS VL: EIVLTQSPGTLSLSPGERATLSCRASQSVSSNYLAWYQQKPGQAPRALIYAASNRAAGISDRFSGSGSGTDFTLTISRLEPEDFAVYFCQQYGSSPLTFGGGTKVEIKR
[reply] 0.3 nM

Values were extracted from patent US20260109776A1.
